Taken from ChEMBL document CHEMBL3396996.

target: 2-heptyl-4(1H)-quinolone synthase PqsD (Pseudomonas aeruginosa); experiment: Inhibition of Pseudomonas aeruginosa recombinant PqsD expressed in Escherichia coli BL21 (lambdaDE3) using ACoA/beta-ketodecanoic acid as substrate at 50 uM after 10 mins
inhibition of 20% or higher: y. Under 20%: n.

{"SUBSTANCE_SMILES": "O=C(O)/C=C/c1ccsc1", "ASSIGNED_LABEL": "n"}
{"SUBSTANCE_SMILES": "COC(=O)/C=C/c1ccc(O)cc1", "ASSIGNED_LABEL": "y"}
{"SUBSTANCE_SMILES": "COC(=O)CCc1ccc([N+](=O)[O-])cc1", "ASSIGNED_LABEL": "n"}
{"SUBSTANCE_SMILES": "O=C(O)/C=C/c1cccc(O)c1", "ASSIGNED_LABEL": "n"}
{"SUBSTANCE_SMILES": "O=C(O)/C=C/c1ccc(O)c(O)c1", "ASSIGNED_LABEL": "y"}
{"SUBSTANCE_SMILES": "O=C(O)/C=C/c1ccc(F)c(F)c1", "ASSIGNED_LABEL": "n"}
{"SUBSTANCE_SMILES": "COC(=O)CCc1ccc2c(c1)OCO2", "ASSIGNED_LABEL": "y"}
{"SUBSTANCE_SMILES": "O=C(O)/C=C/c1ccc(O)cc1", "ASSIGNED_LABEL": "y"}
